target: CYP2D6 (Homo sapiens, UniProt P10635); assay: Study 2; details: human, plasma, oral, 30 mg
Sequence (P10635 whole entry): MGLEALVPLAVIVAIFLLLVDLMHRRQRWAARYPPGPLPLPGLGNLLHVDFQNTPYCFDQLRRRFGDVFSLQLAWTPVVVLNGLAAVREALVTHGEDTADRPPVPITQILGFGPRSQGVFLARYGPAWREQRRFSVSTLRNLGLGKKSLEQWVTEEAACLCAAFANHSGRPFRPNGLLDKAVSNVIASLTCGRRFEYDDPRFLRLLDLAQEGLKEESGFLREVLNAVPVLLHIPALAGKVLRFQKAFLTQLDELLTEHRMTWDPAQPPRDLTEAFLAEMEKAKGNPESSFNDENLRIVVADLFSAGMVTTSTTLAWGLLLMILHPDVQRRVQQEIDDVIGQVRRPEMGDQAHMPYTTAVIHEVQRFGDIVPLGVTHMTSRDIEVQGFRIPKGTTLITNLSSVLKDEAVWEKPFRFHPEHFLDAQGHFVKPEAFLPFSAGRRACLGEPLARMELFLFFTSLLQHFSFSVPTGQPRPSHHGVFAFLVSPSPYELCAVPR
What AUC(0-t) was measured for each of the following?
Please state the figure in ng·h/mL; there is no need to write the unit.

For this compound ( CN1CC[C@@]23CCCC[C@@H]2[C@@H]1Cc1ccc(O)cc13 ), measured AUC(0-t) is 26.3

Kindly note the recorded AUC(0-t) for COc1ccc2c(c1)[C@]13CCCC[C@@H]1[C@H](C2)N(C)CC3 , which is 26.6

---

target: UGT1A9 (Homo sapiens, UniProt O60656); test: Inhibition of UGT1A9 in human liver microsomes
Sequence (O60656 26-530): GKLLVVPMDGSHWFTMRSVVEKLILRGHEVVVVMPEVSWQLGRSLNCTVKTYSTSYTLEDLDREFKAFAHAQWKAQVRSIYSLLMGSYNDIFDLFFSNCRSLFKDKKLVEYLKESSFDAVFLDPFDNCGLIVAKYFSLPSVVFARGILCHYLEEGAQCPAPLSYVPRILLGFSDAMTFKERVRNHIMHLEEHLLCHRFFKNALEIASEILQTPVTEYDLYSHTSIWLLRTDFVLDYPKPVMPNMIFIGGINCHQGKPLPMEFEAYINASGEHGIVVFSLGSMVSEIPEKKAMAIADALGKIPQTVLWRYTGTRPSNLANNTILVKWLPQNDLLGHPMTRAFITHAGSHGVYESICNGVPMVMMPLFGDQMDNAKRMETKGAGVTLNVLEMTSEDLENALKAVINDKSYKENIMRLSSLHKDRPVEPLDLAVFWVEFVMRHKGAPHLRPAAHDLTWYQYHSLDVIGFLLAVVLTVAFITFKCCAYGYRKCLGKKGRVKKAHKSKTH
pIC50: −log10 of the molar value.
Attribute Measured: pIC50

// molecule CCC(=O)C(C[C@H](C)N(C)C)(c1ccccc1)c1ccccc1 , assay UGT1A9 (Homo sapiens, UniProt O60656), pIC50 value: < 3.70

---

test: Study 3; conditions: human, in vivo, 25 mg
Attribute Measured: Tmax
Could you give the number and then its unit, please?

# Tmax (compound: CCC(=O)C(C[C@H](C)N(C)C)(c1ccccc1)c1ccccc1 [esmethadone] ) is 3 h

---

molecular target: UGT1A3 (Homo sapiens)
Sequence (P35503 29-534): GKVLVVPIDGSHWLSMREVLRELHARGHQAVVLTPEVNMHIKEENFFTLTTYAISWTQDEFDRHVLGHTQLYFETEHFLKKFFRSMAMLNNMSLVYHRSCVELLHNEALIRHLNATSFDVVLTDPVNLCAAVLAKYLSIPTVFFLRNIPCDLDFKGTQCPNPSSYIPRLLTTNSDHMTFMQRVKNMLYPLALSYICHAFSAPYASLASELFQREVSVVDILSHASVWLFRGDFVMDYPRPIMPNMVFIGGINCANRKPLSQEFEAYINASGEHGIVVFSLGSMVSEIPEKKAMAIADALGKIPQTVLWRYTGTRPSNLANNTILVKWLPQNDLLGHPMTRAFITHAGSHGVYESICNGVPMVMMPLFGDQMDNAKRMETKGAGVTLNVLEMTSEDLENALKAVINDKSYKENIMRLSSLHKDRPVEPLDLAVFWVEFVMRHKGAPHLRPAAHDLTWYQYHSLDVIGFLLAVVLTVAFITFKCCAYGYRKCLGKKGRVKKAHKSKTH
pIC50: −log10 of the molar value.
Attribute Measured: pIC50

pIC50 recorded for this compound, CCC(=O)C(C[C@H](C)N(C)C)(c1ccccc1)c1ccccc1 [esmethadone] , is < 3.70

---

system: CYP3A4; assay: Study 2; details: human, in vivo, 2 mg
Attribute Measured: AUC(0-inf) (ng·h/mL)
Quick note: give the figure in ng·h/mL, leave out the unit.

Value of AUC(0-inf) reported for the compound Cc1ncc2n1-c1ccc(Cl)cc1C(c1ccccc1F)=NC2 [midazolam, reference compound] is 26.8

---

test system: CYP2C8; test: in vitro; assay type: in vitro ADME; conditions: human, mRNA levels EC50, donor 3, 72 h
Attribute Measured: EC50 at 72 h (µM)
Answer in µM, number only, no unit symbol.

// CCC(=O)C(C[C@H](C)N(C)C)(c1ccccc1)c1ccccc1 : EC50 at 72 h value = 5.27

---

tested on: CYP3A4; assay: Study 3; conditions: human, in vivo, 25 mg
Attribute Measured: AUC(0-inf) (ng·h/mL)
Write the answer as a number in ng·h/mL, unit excluded.

Lab note: CCC(=O)C(C[C@H](C)N(C)C)(c1ccccc1)c1ccccc1 gave AUC(0-inf) of 4430

---

test system: CYP2C8; assay: in vitro; format: in vitro ADME; conditions: human, mRNA levels EC50, donor 1, 72 h
Attribute Measured: EC50 at 72 h (nM)
Numeric only. Scale: nM

Sure, the documented EC50 at 72 h for CCC(=O)C(C[C@H](C)N(C)C)(c1ccccc1)c1ccccc1 is 2850

---

target: CYP2D6 (Homo sapiens, UniProt P10635); experiment: Direct inhibition of CYP2D6; conditions: Ki, HLM, five substrate concentrations 2–50 μM
Attribute Measured: Ki

Record CCC(=O)C(C[C@H](C)N(C)C)(c1ccccc1)c1ccccc1 , field Ki: 2020 nM

---

tested on: CYP2C9; test: in vitro; format: in vitro ADME; conditions: human, mRNA levels EC50, donor 1, 72 h
Attribute Measured: EC50 at 72 h (nM)
Response body: numeric value in nM, unit text excluded.

Record CCC(=O)C(C[C@H](C)N(C)C)(c1ccccc1)c1ccccc1 . Reported EC50 at 72 h: 1050
